Reported PBM binding z-score values for a set of sequences
# Test system: RARg homodimer (NR concentration 270 nM)
# ASSAY EXPLANATION: PBM binding z-score (relative to random genomic background probes); higher = stronger binding; sequences stand for … in GC…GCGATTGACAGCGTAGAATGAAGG
Keep the answer to the number alone.

>>> reading("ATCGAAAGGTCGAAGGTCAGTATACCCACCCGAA")
5.42
>>> reading("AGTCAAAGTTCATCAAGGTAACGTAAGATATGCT")
5.96
>>> reading("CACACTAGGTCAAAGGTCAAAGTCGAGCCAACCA")
7.38

We now examine a further sequence.
Enquiry: Please state recorded PBM binding z-score (tested on RARg homodimer (NR concentration 270 nM)) of CCGAGTAGGATACGAGGGGGCATTCAGTGCGAAT
Return: 0.779

###

# System: PPARa:RXRa (NR concentration 270 nM, RXRa partner concentration 90 nM)
# ASSAY EXPLANATION: PBM binding z-score (relative to random genomic background probes); higher = stronger binding; sequences stand for … in GC…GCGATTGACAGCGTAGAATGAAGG
Param threshold (4) applies to PBM binding z-score; output y when value >= threshold, n when value < threshold.

>>> label_class("CGAACTAGGTCCTTGACAGGACAGTGAATAGTAA")
"n"
>>> label_class("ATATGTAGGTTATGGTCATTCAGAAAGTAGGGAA")
"n"
>>> label_class("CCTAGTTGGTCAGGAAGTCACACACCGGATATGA")
"n"
>>> label_class("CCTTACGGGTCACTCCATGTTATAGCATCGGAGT")
"y"
>>> label_class("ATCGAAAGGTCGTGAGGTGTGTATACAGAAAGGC")
"y"
>>> label_class("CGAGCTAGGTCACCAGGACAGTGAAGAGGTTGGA")
"n"

Enquiry: Threshold query (PBM binding z-score >= 4) on CGTCCAAGGTCAAAGGTCAGCGAAGAGATGACGG
Return: y

Enquiry: Threshold query (PBM binding z-score >= 4) on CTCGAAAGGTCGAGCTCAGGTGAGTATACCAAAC
Return: y

Enquiry: Threshold query (PBM binding z-score >= 4) on ATATGTAGGGTAGGGTCATTCAGAAAGTAGGGAA
Return: y

###

Reported PBM binding z-score values for a set of sequences
# System: RARb:RXRa (NR concentration 270 nM, RXRa partner concentration 90 nM)
# ASSAY EXPLANATION: PBM binding z-score (relative to random genomic background probes); higher = stronger binding; sequences stand for … in GC…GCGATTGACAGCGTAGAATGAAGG
Keep the answer to the number alone.

The examples below pair each entry with its known result.
>>> reading("CGCACTAGGTCATTGACAGGACAGTGAATAGTAA")
3.81
>>> reading("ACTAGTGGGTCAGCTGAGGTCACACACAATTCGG")
4.45
>>> reading("AGAATGAGGTTACCAAAGATCAGTGAAACGCTTG")
2.06
>>> reading("TCGAGTAGGTTACGGGGGCGTTCAGGGATGAAGA")
2.23

Enquiry: Please state recorded PBM binding z-score (tested on RARb:RXRa (NR concentration 270 nM, RXRa partner concentration 90 nM)) of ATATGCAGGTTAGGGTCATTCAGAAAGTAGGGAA
Return: 3.4

Enquiry: Please state recorded PBM binding z-score (tested on RARb:RXRa (NR concentration 270 nM, RXRa partner concentration 90 nM)) of CCTACTGGGCCAAGCTCATTGATCAGTCAAAGCA
Return: -0.112

Enquiry: Please state recorded PBM binding z-score (tested on RARb:RXRa (NR concentration 270 nM, RXRa partner concentration 90 nM)) of CGATGTAGGTTAAGGGGGTCATTCAGTTTGAAAG
Return: 3.65

Enquiry: Please state recorded PBM binding z-score (tested on RARb:RXRa (NR concentration 270 nM, RXRa partner concentration 90 nM)) of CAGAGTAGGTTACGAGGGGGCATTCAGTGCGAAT
Return: 2.45

Enquiry: Please state recorded PBM binding z-score (tested on RARb:RXRa (NR concentration 270 nM, RXRa partner concentration 90 nM)) of CCTAGTTGGTCAAGGTCACGCACGCTATAGGTAC
Return: 4.31

Enquiry: Please state recorded PBM binding z-score (tested on RARb:RXRa (NR concentration 270 nM, RXRa partner concentration 90 nM)) of CTATGTACGTTAAGGGGGTCATTCAGTTTGAAAG
Return: 3.45

Enquiry: Please state recorded PBM binding z-score (tested on RARb:RXRa (NR concentration 270 nM, RXRa partner concentration 90 nM)) of CCTACTGGGCCAAAGGTCATTGACTCCAATGCTC
Return: 4.53

Enquiry: Please state recorded PBM binding z-score (tested on RARb:RXRa (NR concentration 270 nM, RXRa partner concentration 90 nM)) of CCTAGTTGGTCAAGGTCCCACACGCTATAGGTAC
Return: 1.29

Enquiry: Please state recorded PBM binding z-score (tested on RARb:RXRa (NR concentration 270 nM, RXRa partner concentration 90 nM)) of ATATGTAGGTTATCGGGTCATTCATTTTGCGCAT
Return: 2.43

Enquiry: Please state recorded PBM binding z-score (tested on RARb:RXRa (NR concentration 270 nM, RXRa partner concentration 90 nM)) of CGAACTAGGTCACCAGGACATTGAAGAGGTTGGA
Return: 4.21

Enquiry: Please state recorded PBM binding z-score (tested on RARb:RXRa (NR concentration 270 nM, RXRa partner concentration 90 nM)) of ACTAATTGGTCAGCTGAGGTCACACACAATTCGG
Return: 3.91

Enquiry: Please state recorded PBM binding z-score (tested on RARb:RXRa (NR concentration 270 nM, RXRa partner concentration 90 nM)) of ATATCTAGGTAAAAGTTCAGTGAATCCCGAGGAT
Return: 2.56

Enquiry: Please state recorded PBM binding z-score (tested on RARb:RXRa (NR concentration 270 nM, RXRa partner concentration 90 nM)) of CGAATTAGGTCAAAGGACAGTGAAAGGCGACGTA
Return: 4.18

Enquiry: Please state recorded PBM binding z-score (tested on RARb:RXRa (NR concentration 270 nM, RXRa partner concentration 90 nM)) of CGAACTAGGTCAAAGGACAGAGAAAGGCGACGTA
Return: 3.88

Provenance of the data: the supplement of paper PMC6555819
